Recorded values, source ChEMBL document CHEMBL1201862.

Target: UniProtKB O43293
Sequence (O43293 whole entry): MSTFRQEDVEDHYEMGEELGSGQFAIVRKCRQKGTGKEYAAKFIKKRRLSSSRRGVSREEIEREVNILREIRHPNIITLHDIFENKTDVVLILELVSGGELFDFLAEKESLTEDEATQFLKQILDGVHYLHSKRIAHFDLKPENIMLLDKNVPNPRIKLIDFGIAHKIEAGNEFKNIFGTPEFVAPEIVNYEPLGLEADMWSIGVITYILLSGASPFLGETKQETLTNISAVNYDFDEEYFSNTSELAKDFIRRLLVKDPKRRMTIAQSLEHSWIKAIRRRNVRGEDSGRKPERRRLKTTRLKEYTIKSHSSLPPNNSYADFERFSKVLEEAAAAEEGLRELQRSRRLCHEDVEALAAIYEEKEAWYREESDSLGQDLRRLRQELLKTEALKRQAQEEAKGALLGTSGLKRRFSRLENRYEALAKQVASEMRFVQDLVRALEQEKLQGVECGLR
Format: functional
Active and inactive are the calls of the source.
PROPERTY: Ki

Please review the following examples before continuing.
### Prompt Entry under review: NC1CCC(Nc2nccc(-c3c[nH]c4ncccc34)n2)CC1 (centres undefined) . Reported Ki?
### Response 158 nM (active)

### Prompt Entry under review: COC(C(=O)N1Cc2[nH]nc(NC(=O)c3ccc(N4CCN(C)CC4)cc3)c2C1)c1ccccc1 (centres undefined) . Reported Ki?
### Response 794 nM (active)

### Prompt Entry under review: CC(C)(O)c1cn(-c2ccc3[nH]ncc3c2)nn1 . Reported Ki?
### Response 2000 nM (active)

Now for a further compound.
### Prompt Entry under review: OCc1cc(-c2ccc3[nH]ncc3c2)on1 . Reported Ki?
### Response 3980 nM (active)
